The measurements presented in this section are drawn from patent EP4768484A1.

Target: Ba/F3 BCR-ABL1 V468F (Homo sapiens, UniProt P00519+P11274, V468F)
Construct: BCR (N-terminal fusion partner of the oncoprotein)
Assay: Cell growth inhibitory activity assay (CellTiter-Glo), Ba/F3 BCR-ABL1 V468F cells
Details: 72 h, CTG cell viability
Description: In this assay, the Celltiter-Glo (CTG) kit provided by Promega was used, and it is a homogeneous cell viability assay method. The cell viability of cultured cells was measured by quantifying ATP. […] The steps of cell viability assay are as follows: • a) Cells in logarithmic growth phase were collected. Cell suspension was prepared and the cells were counted. […]
pIC50: −log10 of the molar value.
value type: pIC50

C[C@@H]1COCc2nc3cc(C(=O)Nc4ccc(OC(F)(F)Cl)cc4)cc(-c4cnc5c(c4)-c4nn(-c6nccc(C#N)n6)cc4C5)c3n21 6.00 to 7.30
CC(C)n1cc2c(n1)-c1cc(-c3cc(C(=O)Nc4ccc(OC(F)(F)Cl)cc4)cc4nc5n(c34)[C@H](C)COC5)cnc1C2 7.30 to 8.30
C[C@@H]1COCc2nc3cc(C(=O)Nc4ccc(OC(F)(F)Cl)cc4)cc(-c4cnc5c(c4)-c4nn(S(C)(=O)=O)cc4C5)c3n21 6.00 to 7.30
C[C@@H]1COCc2nc3cc(C(=O)Nc4ccc(OC(F)(F)Cl)cc4)cc(-c4cnc5c(c4)-c4nn(C6CC6)cc4C5)c3n21 7.30 to 8.30

---

Target: Ba/F3 BCR-ABL1 WT (Homo sapiens, UniProt P00519+P11274)
Construct: BCR (N-terminal fusion partner of the oncoprotein)
Assay: Cell growth inhibitory activity assay (CellTiter-Glo), Ba/F3 BCR-ABL1 WT cells
Conditions: 72 h, CTG cell viability
Parameter: IC50. Scope: all listed entries.
value type: IC50

molecule	result
CC(=O)NC1CCC2c3cc(C(=O)Nc4ccc(OC(F)(F)Cl)cc4)cc(-c4cnc5c(c4)C(=O)N(C)C5)c3N(C(C)C)C12 (racemic) [T-11]	≤ 5 nM
COc1cnc(-n2cc3c(n2)-c2cc(-c4cc(C(=O)Nc5ccc(OC(F)(F)Cl)cc5)cnc4N4CC[C@@H](F)C4)cnc2C3)nc1 [T-17]	≤ 5 nM
CC(C)n1cnc2cc(C(=O)Nc3ccc(OC(F)(F)Cl)cc3)cc(-c3cnc4c(c3)-c3nn(-c5ncccn5)cc3C4)c21 [T-120]	≤ 5 nM

---

Reported pIC50 values follow for various compounds
Molecular target: Ba/F3 BCR-ABL1 T315I (Homo sapiens, UniProt P00519+P11274, T315I)
Construct: BCR (N-terminal fusion partner of the oncoprotein)
Experiment: Cell growth inhibitory activity assay (CellTiter-Glo), Ba/F3 BCR-ABL1 T315I cells
Conditions: 72 h, CTG cell viability
pIC50: −log10 of the molar value.
value type: pIC50

compound	value type	result
CC(=O)Nc1nc2c(s1)Cc1ccc(-c3cc(C(=O)Nc4ccc(OC(F)(F)Cl)cc4)cc4nc5n(c34)[C@H](C)COC5)cc1-2 [T-112]	pIC50	7.30 to 8.30
Cn1ccc(-c2ccnc(-n3cc4c(n3)-c3cc(-c5cc(C(=O)Nc6ccc(OC(F)(F)Cl)cc6)cc6c5C5(CCCCC5)C(=O)N6)cnc3C4)n2)n1 [T-138]	pIC50	≥ 8.30
C[C@@H]1COCc2nc3cc(C(=O)Nc4ccc(OC(F)(F)Cl)cc4)cc(-c4cnc5c(c4)-c4nn(-c6nccc(-c7cncc(C#N)c7)n6)cc4C5)c3n21 [T-98]	pIC50	≥ 8.30
CC(=O)N[C@@H]1CCC2c3cc(C(=O)Nc4ccc(OC(F)(F)Cl)cc4)cc(-c4cnc5c(c4)C(=O)N(C)C5)c3N(C(C)C)C21 (stereo partly drawn) [T-11-B]	pIC50	7.30 to 8.30
C[C@@H]1CC[S+]([O-])c2nc3cc(C(=O)Nc4ccc(OC(F)(F)Cl)cc4)cc(-c4cnccn4)c3n21 (stereo partly drawn) [T-117]	pIC50	7.30 to 8.30
C[C@@H]1COCc2nc3cc(C(=O)Nc4ccc(OC(F)(F)Cl)cc4)cc(-c4cnc5c(c4)-c4nn(-c6cncnc6)cc4C5)c3n21 [T-66]	pIC50	7.30 to 8.30

---

List of IC50 values.
Molecular target: Ba/F3 BCR-ABL1 T315I (Homo sapiens, UniProt P00519+P11274, T315I)
Construct: BCR (N-terminal fusion partner of the oncoprotein)
Experiment: Cell growth inhibitory activity assay (CellTiter-Glo), Ba/F3 BCR-ABL1 T315I cells
Settings: 72 h, CTG cell viability
value type: IC50

O=C(Nc1ccc(OC(F)(F)Cl)cc1)c1cc2c(c(-c3cnc4c(c3)-c3nn(-c5nccc(-c6cncc(F)c6)n5)cc3C4)c1)C1(CCCCC1)C(=O)N2 ≤ 5 nM
Cn1ccc2cnc(-n3cc4c(n3)-c3cc(-c5cc(C(=O)Nc6ccc(OC(F)(F)Cl)cc6)cnc5N5CC[C@@H](F)C5)cnc3C4)nc21 ≤ 5 nM
Cc1cc(C)nc(-n2cc3c(n2)-c2cc(-c4cc(C(=O)Nc5ccc(OC(F)(F)Cl)cc5)cc5nc6n(c45)[C@H](C)COC6)cnc2C3)n1 ≤ 5 nM
C[C@@H]1COCc2nc3cc(C(=O)Nc4ccc(OC(F)(F)Cl)cc4)cc(-c4cnc5c(c4)-c4c(cnn4CCOC(C)(C)C)C5)c3n21 > 1000 nM
Cc1ccnc(-n2cc3c(n2)-c2cc(-c4cc(C(=O)Nc5ccc(OC(F)(F)Cl)cc5)cc5nc6n(c45)[C@H](C)COC6)cnc2C3)n1 ≤ 5 nM
O=C(Nc1ccc(OC(F)(F)Cl)cc1)c1cnc(N2CC[C@@H](F)C2)c(-c2cnc3c(c2)-c2nn(-c4ncccn4)cc2C3)c1 ≤ 5 nM
O=C(Nc1ccc(OC(F)(F)Cl)cc1)c1cnc(N2CC[C@@H](F)C2)c(-c2cnc3c(c2)-c2nn(-c4nccc(-c5cncnc5)n4)cc2C3)c1 ≤ 5 nM
Cc1ccc(-n2cc3c(n2)-c2cc(-c4cc(C(=O)Nc5ccc(OC(F)(F)Cl)cc5)cc5nc6n(c45)[C@H](C)COC6)cnc2C3)nn1 5 to 50 nM
C[C@@H]1COCc2nc3cc(C(=O)Nc4ccc(OC(F)(F)Cl)cc4)cc(-c4cnc5c(c4)-c4nn(-c6nccc(-c7ccccc7F)n6)cc4C5)c3n21 ≤ 5 nM
COc1ccc(-c2ccnc(-n3cc4c(n3)-c3cc(-c5cc(C(=O)Nc6ccc(OC(F)(F)Cl)cc6)cc6nc7n(c56)[C@H](C)COC7)cnc3C4)n2)cc1F ≤ 5 nM
C[C@@H]1COCc2nc3cc(C(=O)Nc4ccc(OC(F)(F)Cl)cc4)cc(-c4cnc5c(c4)-c4nn(-c6ncc(-c7ccccc7)cn6)cc4C5)c3n21 ≤ 5 nM
O=C(Nc1ccc(OC(F)(F)Cl)cc1)c1cnc(N2CC[C@@H](F)C2)c(-c2cnc3c(c2)-c2c(cnn2-c2ncc(F)cn2)C3)c1 5 to 50 nM

---

Target: Ba/F3 BCR-ABL1 WT (Homo sapiens, UniProt P00519+P11274)
Construct: BCR (N-terminal fusion partner of the oncoprotein)
Experiment: Cell growth inhibitory activity assay (CellTiter-Glo), Ba/F3 BCR-ABL1 WT cells
Details: 72 h, CTG cell viability

compound	target entity	IC50
COc1nc(OC)nc(-n2cc3c(n2)-c2cc(-c4cc(C(=O)Nc5ccc(OC(F)(F)Cl)cc5)cc5nc6n(c45)[C@H](C)COC6)cnc2C3)n1 [T-70]	Ba/F3 BCR-ABL1 WT (Homo sapiens, UniProt P00519+P11274)	≤ 5 nM
C[C@@H]1COCc2nc3cc(C(=O)Nc4ccc(OC(F)(F)Cl)cc4)cc(-c4cnc5c(c4)C(=O)N(C)C5)c3n21 [T-21]	Ba/F3 BCR-ABL1 WT (Homo sapiens, UniProt P00519+P11274)	≤ 5 nM
CN1Cc2ncc(-c3cc(C(=O)Nc4ccc(OC(F)(F)Cl)cc4)cc4c3C3(CCCCC3)C(=O)N4)cc2C1=O [T-8]	Ba/F3 BCR-ABL1 WT (Homo sapiens, UniProt P00519+P11274)	≤ 5 nM
C[C@@H]1COCc2nc3cc(C(=O)Nc4ccc(OC(F)(F)Cl)cc4)cc(-c4cnc5c(c4)-c4nn(-c6nccc(-c7cccnc7F)n6)cc4C5)c3n21 [T-95]	Ba/F3 BCR-ABL1 WT (Homo sapiens, UniProt P00519+P11274)	≤ 5 nM
CC(=O)NC1CCC2c3cc(C(=O)Nc4ccc(OC(F)(F)Cl)cc4)cc(-c4cnccn4)c3N(C(C)C)C12 (racemic) [T-12]	Ba/F3 BCR-ABL1 WT (Homo sapiens, UniProt P00519+P11274)	5 to 50 nM
C[C@@H]1CC[S+]([O-])c2nc3cc(C(=O)Nc4ccc(OC(F)(F)Cl)cc4)cc(-c4cnc5c(c4)C(=O)N(C)C5)c3n21 (stereo partly shown) [T-27]	Ba/F3 BCR-ABL1 WT (Homo sapiens, UniProt P00519+P11274)	5 to 50 nM
C[C@@H]1COCc2nc3cc(C(=O)Nc4ccc(OC(F)(F)Cl)cc4)cc(-c4cnc5c(c4)C(=O)/C(=C\N(C)C)C5)c3n21 [T-59]	Ba/F3 BCR-ABL1 WT (Homo sapiens, UniProt P00519+P11274)	≤ 5 nM
C[C@@H]1COCc2nc3cc(C(=O)Nc4ccc(OC(F)(F)Cl)cc4)cc(-c4cnc5c(c4)-c4nn(-c6ncccn6)cc4C5)c3n21 [T-65]	Ba/F3 BCR-ABL1 WT (Homo sapiens, UniProt P00519+P11274)	≤ 5 nM
C[C@@H]1COCc2nc3cc(C(=O)Nc4ccc(OC(F)(F)Cl)cc4)cc(-c4cnc5c(c4)-c4nn(S(C)(=O)=O)cc4C5)c3n21 [T-42]	Ba/F3 BCR-ABL1 WT (Homo sapiens, UniProt P00519+P11274)	≤ 5 nM
C[C@@H]1CN(C)CCc2nc3cc(C(=O)Nc4ccc(OC(F)(F)Cl)cc4)cc(-c4cnc5c(c4)C(=O)N(C4CC4)C5)c3n21 [T-37]	Ba/F3 BCR-ABL1 WT (Homo sapiens, UniProt P00519+P11274)	> 1000 nM
C[C@@H]1CCC(F)c2nc3cc(C(=O)Nc4ccc(OC(F)(F)Cl)cc4)cc(-c4cnc5c(c4)C(=O)N(C4CC4)C5)c3n21 (stereo partly shown) [T-35]	Ba/F3 BCR-ABL1 WT (Homo sapiens, UniProt P00519+P11274)	≤ 5 nM
C[C@@H]1COCc2nc3cc(C(=O)Nc4ccc(OC(F)(F)Cl)cc4)cc(-c4cnc5c(c4)-c4nn(-c6nccc(-c7ccn(C)n7)n6)cc4C5)c3n21 [T-90]	Ba/F3 BCR-ABL1 WT (Homo sapiens, UniProt P00519+P11274)	≤ 5 nM
CC(=O)n1cc2c(n1)-c1cc(-c3cc(C(=O)Nc4ccc(OC(F)(F)Cl)cc4)cc4nc5n(c34)[C@H](C)COC5)cnc1C2 [T-43]	Ba/F3 BCR-ABL1 WT (Homo sapiens, UniProt P00519+P11274)	≤ 5 nM
